Data origin, for the record: ChEMBL document CHEMBL5058564

Tested on: Fibroblast
Assay Explanation: Incucyte cell viability with human fibroblast; further: unitless GR value; below 1 slowed growth and below 0 cell loss
Format: toxicity, cell-based
Test Parameters: 24 h, 10 µM, compound concentration 10 uM, replicate number 2, timepoint 24 hours
Use true (1) when the recorded Growth Rate is no lower than 0.08; use false (0) when it is lower.

Field: example entries. Status: answers known.
Compound	Label Class
CC(C)Oc1ccc(-c2nc(-c3cccc4c3CC[C@@H]4NCCO)no2)cc1C#N [OZANIMOD]	false (0)
CO/C1=C/C(C)=C\[C@@H](C)[C@@H](O)[C@@H](C)C/C(C)=C\C=C/[C@H](OC)C([C@@H](C)[C@@H](O)[C@H](C)[C@@]2(O)C[C@@H](O)[C@H](C)[C@@H](C(C)C)O2)OC1=O (stereo partly drawn)	false (0)
N[C@@H]1c2cccnc2[C@H](OC(=O)N2CCC(n3c(=O)[nH]c4ncccc43)CC2)CC[C@H]1c1cccc(F)c1F [RIMEGEPANT]	false (0)

Say whether COc1cc(Br)c(S(=O)(=O)Nc2ccc(C(F)(F)F)c(O[C@@H]3CCN(C)C3)c2)cc1OC shows Growth Rate of 0.08 or more. true (1)

Say whether N#Cc1c(Oc2cccc(OS(=O)(=O)CCCC(F)(F)F)c2)cccc1C(F)(F)F shows Growth Rate of 0.08 or more. false (0)

Say whether CCCCCCCCc1ccc(CC[C@](N)(CO)COP(=O)(O)O)cc1 [FTY720-P] shows Growth Rate of 0.08 or more. true (1)

Say whether CC(C)(C)c1ccc(-c2coc3ccc(-c4cn[nH]c4)nc23)cc1 shows Growth Rate of 0.08 or more. true (1)

###

Test system: HEK-293T
Assay Explanation: Incucyte cell viability with HEK293T; further: unitless GR value; below 1 slowed growth and below 0 cell loss
Type: toxicity, cell-based
Test Parameters: human, 12 h, 10 µM, compound concentration 10 uM, replicate number 2, timepoint 12 hours
just bin them by Growth Rate: low: < 0.3; moderate: ≥ 0.3 and < 0.8; high: ≥ 0.8

Which bin should I file Cc1nc2ccc(Oc3ccc(F)cc3)cc2c(=O)n1C[C@H]1CCCN(C(C)C)C1.Cl under? low

Which bin should I file Cc1sc2c(c1C)C(c1ccc(Cl)cc1)=N[C@@H](CC(=O)NCCCCCCCCNC(=O)COc1cccc3c1C(=O)N(C1CCC(=O)NC1=O)C3=O)c1nnc(C)n1-2 (some centres not stated) under? low

Which bin should I file N#Cc1c(N)nc(SCc2csc(-c3ccc(Cl)cc3)n2)c(C#N)c1-c1ccc(OCCO)cc1 under? moderate

Which bin should I file Cc1nccc(COC(=O)N2C[C@@H]3[C@@H](CNC(=O)c4ccc5[nH]nnc5c4)[C@@H]3C2)n1 under? high

Which bin should I file CC(C)CC(=O)Nc1cncc(-c2ccc3[nH]nc(-c4nc5c(-c6cccc(F)c6)cncc5[nH]4)c3c2)c1 under? low

###

System: Fibroblast
Assay Explanation: Incucyte cell viability with human fibroblast; further: unitless GR value; below 1 slowed growth and below 0 cell loss
Assay type: toxicity, cell-based
Test Parameters: 0 h, 10 µM, compound concentration 10 uM, replicate number 1, timepoint 0 hours
Quantity Name: Growth Rate
Lab note: jot the number down without any unit.

# annotated cases, reported Growth Rate shown
Molecule	Quantity Name	Readout Value
Nc1nc(Nc2ccccc2)nc2c1ncn2[C@@H]1O[C@H](CO)[C@@H](O)[C@H]1O	Growth Rate	0.77
Nc1nc(CC(=O)Nc2ccc(CCNC[C@H](O)c3ccccc3)cc2)cs1	Growth Rate	0.35
CN(C(=O)c1ccccc1)c1cc(N(C)c2ccc3c(c2)CCc2ccc(C(=O)NCCN4CCOCC4)cc2C3=O)ccc1F	Growth Rate	0.51
CO/C1=C/C(C)=C\[C@@H](C)[C@@H](O)[C@@H](C)C/C(C)=C\C=C/[C@H](OC)C([C@@H](C)[C@@H](O)[C@H](C)[C@@]2(O)C[C@@H](O)[C@H](C)[C@@H](C(C)C)O2)OC1=O (stereo partly specified)	Growth Rate	0.09
COc1cc(/C=C/C(=O)NCCn2c(C)cc3ccccc32)cc(OC)c1OC	Growth Rate	0.86
O=C1c2c(Br)c(Br)c(Br)c(Br)c2C(=O)N1c1ncc[nH]1	Growth Rate	-1

Consider the molecule O=C(Nc1cc(C(F)(F)F)ccc1N1CCN(Cc2ccccn2)CC1)c1ccc(-c2ccncc2)o1 tested on Fibroblast; state its Growth Rate. 0.86

Consider the molecule CNC(=O)[C@H]1O[C@@H](n2cnc3c(NCc4cccc(I)c4)ncnc32)[C@H](O)[C@@H]1O tested on Fibroblast; state its Growth Rate. 0.22

Consider the molecule Cc1cc(Cn2cnc3c2C[C@@H](C(=O)O)N(C(=O)C(c2ccccc2)c2ccccc2)C3)ccc1N(C)C tested on Fibroblast; state its Growth Rate. 0.15

Consider the molecule COc1cc2nc(N3CCN(C(=O)C4CCCO4)CC3)nc(N)c2cc1OC.Cl.O.O (stereo unspecified) [TERAZOSIN HYDROCHLORIDE] tested on Fibroblast; state its Growth Rate. 0.68

Consider the molecule N=C(N)NCCC[C@@H](NC(=O)C(c1ccccc1)c1ccccc1)C(=O)NCc1ccc(CNC(N)=O)cc1.O=C(O)C(F)(F)F.O=C(O)C(F)(F)F tested on Fibroblast; state its Growth Rate. -0.19
